Measured T/C values are reported for all entries that follow.
# System: L1210 leukemia ip in BDF1 mice, survival T/C
# METHOD_DESCRIPTION: NCI In Vivo Anticancer Drug Screen. Data for tumor model L1210 Leukemia (intraperitoneal) in B6D2F1 (BDF1) mice
# EXPERIMENTAL_SETUP: endpoint: mean survival time; dose: 400.0 mg/kg/injection; schedule: Q04DX002 (ip); vehicle: Klucel (hydroxypropylcellulose) (HPC); higher = longer survival
# Protocol: The antitumor activity of compounds was measured in mice bearing transplantable tumors. Survival or tumor size were measured and the results are expressed as the measurement made in the treated group (T) divided by the measurement made in the vehicle treated control group (C). The tumor model used in this assay is L1210 Leukemia (intraperitoneal) in B6D2F1 (BDF1) mice
Toxic doses and inconclusive results are not listed.

Which T/C is listed for `CC1CCN(C(=O)Nc2ccccc2)CC1` ?
103 % of control

Requested field: T/C. Item: `COC(=O)c1cc2nc(C(C)C)n(Cc3ccccc3)c2cc1C(=O)OC`
102 % of control

Bench note: what T/C did `CN(Cc1ccccc1)C(=O)C(c1ccccc1)c1ccccc1` show?
96 % of control

What does the record list as T/C for `O=C(Nc1ccccc1Cl)Oc1ccc(-c2ccccc2)cc1` ?
106 % of control

For `O=C/C=C/c1cc([N+](=O)[O-])ccc1Cl` , what is its reported T/C?
100 % of control

GET /values?readout=T/C&item= CC1CCC2(OC1)OC1CC3C4CCC5CC(=O)CCC5(C)C4CCC3(C)C1C2C (stereo not given)
94 % of control

Please give the measured T/C for this molecule: O=S(=O)(c1ccccc1)C(Cl)c1cccc(Cl)c1 (stereo not given)
122 % of control

// lookup T/C for O=C(O)CC1CCCCC1CC(=O)O (stereo not given)
107 % of control

What value of T/C has been recorded for this entry: `CCCCCCCCCCCCCc1nc(N)nc(NCCCC)n1`
100 % of control
